Provide the recorded koff for the entries that follow.
# System: T1, mouse 129 SIRP-α D1 domain (mouse (129 strain), UniProt P97797 32-150)
# T1 construct: also called m129
# T1 chain: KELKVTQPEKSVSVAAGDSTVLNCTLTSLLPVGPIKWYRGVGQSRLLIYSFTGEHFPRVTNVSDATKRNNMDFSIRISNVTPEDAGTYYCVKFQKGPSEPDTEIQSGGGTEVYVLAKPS
# Experiment Description: SPR, Langmuir fit
Give the value in s⁻¹ but do not write s⁻¹ after it.

Which koff value is on record for S74 (scFv, V domains shown, also called clone 74) VH: DVQLVESGGGVVRPGESLRLSCAASGFTFSSNAMSWVRQAPGKGLEWLAGISAGDSDTYYPASVKGRFTISRDNPKNTLYLQMNTLTAEDTAVYYCARETWNHLFDYWGLGTLVTVSS VL: ALTQPASVSANPGETVKIACSGGSYYSYYYGWYQQKSPGSALVTVIYSDDKRPSGIPSRFSGSASGSTATLTITGVRAEDEAVYYCGGYDYSSYTNDFGAGTTLTVL ?
0.000412

Which koff value is on record for S189 (scFv, V domains shown) VH: DVQLVESGGGVVRPGESLRLSCAASGFTFSSSDMNWVRQAPGEGLEWVSLISGSGEITYYADSVKGRFTISRDNSKNTLYLQMNSLRAEDTAIYYCAKENNMYRFFDYWGLGTLVTVSS VL: ETVLTQSPGTLSLSPGERATLSCRASQSVYTYLAWYQQKPGQPPRLLIHAARNRAAGIPDRFSGSGSGTEFTLTISSLQSEDFAVYYCQQYYDRPPLTFGGGTKVEIK ?
0.000837

Which koff value is on record for S65 (scFv, V domains shown, also called clone 65) VH: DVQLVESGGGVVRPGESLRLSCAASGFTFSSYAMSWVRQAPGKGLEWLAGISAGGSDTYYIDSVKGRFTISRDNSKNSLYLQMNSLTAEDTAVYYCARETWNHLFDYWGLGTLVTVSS VL: ALTQPASVSANPGETVKITCSGGDYYSTYYGWYQQKSPGSAPVTVIHSDDKRPSDIPSRFSGSASGSAATLTITGVRVEDEAVYFCGAYDGRTYINTFGAGTTLTVL ?
0.000159
